Origin of measurements: the supplement of paper PMC11061612

test system: IA-LM (Non-Small Cell Lung Carcinoma); test: Bliss excess, mean over the matrix (fraction); higher = more synergy;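 also: after 72 h of two-drug dosing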
# Bliss excess per record follows
Give only the figure.

Which value of Bliss excess has been reported for COc1nnc2ccc(N3CCC(c4ccc(OCCN5CCN(C)C(=O)[C@H]5C)cc4)CC3)nn12 [AZD5153] + Cn1cnc2c(F)c(Nc3ccc(Br)cc3Cl)c(C(=O)NOCCO)cc21 [Selumetinib] (first compound max 1 µM, 7x7, partner max 10 µM) in the records?
0.0168

I am curious: what Bliss excess value has been reported for CN(CCO)CC[C@H](CSc1ccccc1)Nc1ccc(S(=O)(=O)NC(=O)c2ccc(N3CCC([C@@H](O)c4ccccc4-c4ccc(Cl)cc4)CC3)cc2)cc1S(=O)(=O)C(F)(F)F [AZD4320] + CN(C)CCCOc1ccc(-c2ccc3ncc4c(c3c2)n(C2CCOCC2)c(=O)n4C)cn1 [AZD0156] (first compound max 1 µM, 7x7, partner max 1 µM) ?
-0.0239

Fill in the blank: the reported Bliss excess of COc1nnc2ccc(N3CCC(c4ccc(OCCN5CCN(C)C(=O)[C@H]5C)cc4)CC3)nn12 [AZD5153] + C=CCn1c(=O)c2cnc(Nc3ccc(N4CCN(C)CC4)cc3)nc2n1-c1cccc(C(C)(C)O)n1 [AZD1775] (first compound max 1 µM, partner max 1 µM) is ____.
-0.0554

Bliss excess for COc1cccc(OCCCN)c1-c1cc(Nc2cnc(C#N)cn2)n[nH]1 [Prexasertib] + C=CCn1c(=O)c2cnc(Nc3ccc(N4CCN(C)CC4)cc3)nc2n1-c1cccc(C(C)(C)O)n1 [AZD1775] (first compound max 1 µM, partner max 1 µM) ?
0.0573

If you can, please state the reported Bliss excess value of CC1(C)CCC(CN2CCN(c3ccc(C(=O)NS(=O)(=O)c4ccc(NCC5CCOCC5)c([N+](=O)[O-])c4)c(Oc4cnc5[nH]ccc5c4)c3)CC2)=C(c2ccc(Cl)cc2)C1 [Venetoclax] + CCN(CCO)CCCOc1ccc2c(Nc3cc(CC(=O)Nc4cccc(F)c4)[nH]n3)ncnc2c1 [AZD2811] (first compound max 1 µM, 7x7, partner max 1 µM) .
-0.053

Look up Bliss excess: CN(CCO)CC[C@H](CSc1ccccc1)Nc1ccc(S(=O)(=O)NC(=O)c2ccc(N3CCC([C@@H](O)c4ccccc4-c4ccc(Cl)cc4)CC3)cc2)cc1S(=O)(=O)C(F)(F)F [AZD4320] + C1CN(CCC1(C(=O)N[C@@H](CCO)C2=CC=C(C=C2)Cl)N)C3=NC=NC4=C3C=CN4 [Capivasertib] (first compound max 1 µM, 7x7, partner max 3 µM)
-0.0888

Using the record for CS(=O)(=O)CCNCc1ccc(-c2ccc3ncnc(Nc4ccc(OCc5cccc(F)c5)c(Cl)c4)c3c2)o1 [Lapatinib] + NC1(c2ccc(-c3nc4ccn5c(=O)[nH]nc5c4cc3-c3ccccc3)cc2)CCC1 [MK-2206] (first compound max 10 µM, 7x7, partner max 10 µM) , report its Bliss excess.
-0.0179

Query: Bliss excess; subject: COc1nnc2ccc(N3CCC(c4ccc(OCCN5CCN(C)C(=O)[C@H]5C)cc4)CC3)nn12 [AZD5153] + CCN(CCO)CCCOc1ccc2c(Nc3cc(CC(=O)Nc4cccc(F)c4)[nH]n3)ncnc2c1 [AZD2811] (first compound max 1 µM, 7x7, partner max 1 µM)
-0.103

----------
test system: MS-1 (Small Cell Lung Carcinoma); test: Bliss excess, mean over the matrix (fraction); higher = more synergy
Rule: Bliss excess under -0.006 gives Not met, otherwise Met.

These recorded examples may help you get a feel for the data.
# Compound, Category Label
rows = [
    ("N#Cc1cnc(Nc2cc(NC[C@H]3CNCCO3)c(C(F)(F)F)cn2)cn1 [SRA737] + CCc1c2c(nc3ccc(O)cc13)-c1cc3c(c(=O)n1C2)COC(=O)[C@]3(O)CC [SN-38] (first compound max 10 µM, 7x7, partner max 0.3 µM)", "Met"),
    ("CN(C)CCCOc1ccc(-c2ccc3ncc4c(c3c2)n(C2CCOCC2)c(=O)n4C)cn1 [AZD0156] + C[C@@H]1COCCN1C2=NC(=NC(=C2)C3(CC3)[S@](=N)(=O)C)C4=C5C=CNC5=NC=C4 [AZD6738] (first compound max 1 µM, 7x7, partner max 10 µM)", "Met"),
    ("CN(CCO)CC[C@H](CSc1ccccc1)Nc1ccc(S(=O)(=O)NC(=O)c2ccc(N3CCC([C@@H](O)c4ccccc4-c4ccc(Cl)cc4)CC3)cc2)cc1S(=O)(=O)C(F)(F)F [AZD4320] + C[C@@H](Nc1cc(F)cc(F)c1)c1cc(C(=O)N(C)C)cc2c(=O)cc(N3CCOCC3)oc12 [AZD8186] (first compound max 1 µM, 7x7, partner max 3 µM)", "Met"),
]

Does Bliss excess meet or surpass -0.006 for NC1(C(=O)N[C@@H](CCO)c2ccc(Cl)cc2)CCN(c2ncnc3[nH]ccc23)CC1 [Capivasertib] + CC(=O)c1c(C)c2cnc(Nc3ccc(N4CCNCC4)cn3)nc2n(C2CCCC2)c1=O [Palbociclib] (first compound max 10 µM, 7x7, partner max 10 µM) ?
Met

Does the compound CN(C)CCCOc1ccc(-c2ccc3ncc4c(c3c2)n(C2CCOCC2)c(=O)n4C)cn1 [AZD0156] + C=CCn1c(=O)c2cnc(Nc3ccc(N4CCN(C)CC4)cc3)nc2n1-c1cccc(C(C)(C)O)n1 [AZD1775] (first compound max 1 µM, partner max 1 µM) have recorded Bliss excess that is -0.006 or more?
Not met

API: above_or_equal(metric=Bliss excess, cutoff=-0.006) for item C[C@@H](c1ccc2nccn2c1)n1nnc2ncc(-c3cnn(C)c3)nc21 [Savolitinib] + Cc1c2c(nn1C)CSCc1cc(n(C)n1)CSc1cc(c3ccccc3c1)OCCCc1c(C(=O)O)n(C)c3c-2c(Cl)ccc13 [AZD5991] (first compound max 1 µM, 7x7, partner max 1 µM)
Not met

Answer whether Bliss excess of CC(=O)c1c(C)c2cnc(Nc3ccc(N4CCNCC4)cn3)nc2n(C2CCCC2)c1=O [Palbociclib] + Cn1cnc2c(F)c(Nc3ccc(Br)cc3Cl)c(C(=O)NOCCO)cc21 [Selumetinib] (first compound max 10 µM, 7x7, partner max 10 µM) is greater than or equal to -0.006.
Not met

Does N#Cc1cnc(Nc2cc(NC[C@H]3CNCCO3)c(C(F)(F)F)cn2)cn1 [SRA737] + C=CCn1c(=O)c2cnc(Nc3ccc(N4CCN(C)CC4)cc3)nc2n1-c1cccc(C(C)(C)O)n1 [AZD1775] (first compound max 10 µM, partner max 1 µM) have a reported Bliss excess of at least -0.006?
Met

Could you please find out whether COc1cc2c(cc1OCCCCCOc1cc3c(cc1OC)C(=O)N1C=C(C)C[C@H]1C=N3)N=C[C@@H]1CC(C)=CN1C2=O [SG3199] + O=C(c1cc(Cc2n[nH]c(=O)c3ccccc23)ccc1F)N1CCN(C(=O)C2CC2)CC1 [Olaparib] (first compound max 0.001 µM, 7x7, partner max 10 µM) has Bliss excess that meets -0.006 or exceeds it?
Met

Identify whether the reported Bliss excess of the following compound is -0.006 or greater: CCN(CCO)CCCOc1ccc2c(Nc3cc(CC(=O)Nc4cccc(F)c4)[nH]n3)ncnc2c1 [AZD2811] + C[C@@H]1COCCN1C2=NC(=NC(=C2)C3(CC3)[S@](=N)(=O)C)C4=C5C=CNC5=NC=C4 [AZD6738] (first compound max 1 µM, 7x7, partner max 10 µM)
Not met

Has Cc1c2c(nn1C)CSCc1cc(n(C)n1)CSc1cc(c3ccccc3c1)OCCCc1c(C(=O)O)n(C)c3c-2c(Cl)ccc13 [AZD5991] + C[C@@H]1COCCN1C2=NC(=NC(=C2)C3(CC3)[S@](=N)(=O)C)C4=C5C=CNC5=NC=C4 [AZD6738] (first compound max 1 µM, 7x7, partner max 10 µM) a recorded Bliss excess greater than or equal to -0.006?
Not met

Form field: Bliss excess at least -0.006? Entry: COc1nnc2ccc(N3CCC(c4ccc(OCCN5CCN(C)C(=O)[C@H]5C)cc4)CC3)nn12 [AZD5153] + C[C@@H]1COCCN1C2=NC(=NC(=C2)C3(CC3)[S@](=N)(=O)C)C4=C5C=CNC5=NC=C4 [AZD6738] (first compound max 1 µM, 7x7, partner max 10 µM)
Not met

Given CC1(C)CCC(CN2CCN(c3ccc(C(=O)NS(=O)(=O)c4ccc(NCC5CCOCC5)c([N+](=O)[O-])c4)c(Oc4cnc5[nH]ccc5c4)c3)CC2)=C(c2ccc(Cl)cc2)C1 [Venetoclax] + CN(C)CCCOc1ccc(-c2ccc3ncc4c(c3c2)n(C2CCOCC2)c(=O)n4C)cn1 [AZD0156] (first compound max 1 µM, 7x7, partner max 1 µM) , state whether its Bliss excess is at least -0.006.
Met

Evaluate NC1(C(=O)N[C@@H](CCO)c2ccc(Cl)cc2)CCN(c2ncnc3[nH]ccc23)CC1 [Capivasertib] + C[C@@H]1COCCN1C2=NC(=NC(=C2)C3(CC3)[S@](=N)(=O)C)C4=C5C=CNC5=NC=C4 [AZD6738] (first compound max 10 µM, 7x7, partner max 10 µM) : Bliss excess at minimum -0.006?
Not met
